Target: T1, TRBP-ΔC (UniProt Q15633-2 9-215)
T1 sequence: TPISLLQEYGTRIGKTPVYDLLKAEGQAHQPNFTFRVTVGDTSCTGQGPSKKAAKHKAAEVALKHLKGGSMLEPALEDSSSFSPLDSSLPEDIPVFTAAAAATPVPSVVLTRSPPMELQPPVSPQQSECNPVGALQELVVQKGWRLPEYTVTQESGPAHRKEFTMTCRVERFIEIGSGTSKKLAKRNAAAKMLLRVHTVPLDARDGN
Test: EMSA; apparent Kd; nH 3.2 (1.4 in loop section); 50 mM sodium cacodylate pH 7.0, 50 mM potassium glutamate, 5% glycerol; EMSA 0.5 pM RNA, 30 min at room temperature, gel 0.25X TBE at 10 C; CD at 10 C with 5-15 uM RNA
Conditions: protein: recombinant; label: 5'-32P top strand (EMSA); blunt
endpoint_name: pKd
pKd field: float, defined as -log10 of concentration (mol/L).

**Query** Endpoint output: pKd of ds16 (dsRNA) RNA 1: GUCAGCAGUGCCUUAG RNA 2: CUAAGGCACUGCUGAC . Value?
**Result** 6.10

Origin of values: paper PMC4301919
